# target.or.system: Solute carrier family 2, facilitated glucose transporter member 1 (Homo sapiens)
# measurement.protocol: ST_JUDE_LEISH: Cytotoxicity at 2uM final concentration against transgenic Leishmania Mexicana promastigotes LmGLUT1 that are glucose transport deficient and complemented with the human glucose transporter GLUT1. Activity is measured by DNA content using SYBR green in vitro
# Type: functional
endpoint.label: inhibition (%)
Write it as a number; the unit % goes unstated.

Prompt: // lookup inhibition | system=Solute carrier family 2, facilitated glucose transporter member 1 (Homo sapiens) | key= `Cc1cc2[nH]c(-c3ccc(C(=O)NCCCN4CCN(c5cccc(Cl)c5)CC4)cc3F)nc2cc1Cl`
Response: -0.3

Prompt: // lookup inhibition | system=Solute carrier family 2, facilitated glucose transporter member 1 (Homo sapiens) | key= `CCOC(=O)c1cnc2c(C(F)(F)F)cccc2c1Nc1ccc(O)cc1`
Response: 10.8

Prompt: // lookup inhibition | system=Solute carrier family 2, facilitated glucose transporter member 1 (Homo sapiens) | key= `COc1cccc(C(=O)Nc2nc3c(s2)CCN(Cc2ccccc2N2CCNCC2)CC3)c1`
Response: 12.3

Prompt: // lookup inhibition | system=Solute carrier family 2, facilitated glucose transporter member 1 (Homo sapiens) | key= `Cc1cc(N[C@@H](CC(C)C)C(=O)NCCOc2ccccc2)nc(NCCOc2ccccc2)n1`
Response: 3.79

Prompt: // lookup inhibition | system=Solute carrier family 2, facilitated glucose transporter member 1 (Homo sapiens) | key= `COc1c(C2CCN(CCN3CCC(NC(=O)c4ccc(-c5ccc(C(F)(F)F)cc5)cc4)CC3)CC2)ccc2c1CCCC2`
Response: 0.78

Prompt: // lookup inhibition | system=Solute carrier family 2, facilitated glucose transporter member 1 (Homo sapiens) | key= `CC(C)OC(=O)c1ccccc1S(N)(=O)=O`
Response: 15.3

Prompt: // lookup inhibition | system=Solute carrier family 2, facilitated glucose transporter member 1 (Homo sapiens) | key= C#CCOc1ccccc1CN1CCC(N2CCc3cc(NC(=O)c4cc(C)on4)ccc32)C1 (centres undefined)
Response: 2.61

Prompt: // lookup inhibition | system=Solute carrier family 2, facilitated glucose transporter member 1 (Homo sapiens) | key= `CC(C)(C)c1cc(Cn2ccnc2)cc(C(C)(C)C)c1O`
Response: 6.9

Prompt: // lookup inhibition | system=Solute carrier family 2, facilitated glucose transporter member 1 (Homo sapiens) | key= `O=C(/C=C/c1ccc(Cl)cc1)NCCCCCN1CCCN(C(=O)Nc2ccc(Cl)c(C(F)(F)F)c2)CC1`
Response: 1.83
